# Method summary: Urinary excretion after oral 14C-milnacipran hydrochloride
# Type: in vivo, human
# Assay context: oral 14C-milnacipran hydrochloride
Test readout: dose excreted in urine as this species

| Molecule | dose excreted in urine as this species |
| --- | --- |
| CCN(CC)C(=O)[C@@]1(c2ccccc2)C[C@H]1CN [l-milnacipran] | 24% |

Pending molecule:
Request the reported dose excreted in urine as this species associated with CCN(CC)C(=O)[C@]1(c2ccccc2)C[C@@H]1CN [d-milnacipran] 31%

* * *

# Method summary: clinical
# Assay context: human, in vivo, iv
Test readout: Vd

Request the reported Vd associated with CCN(CC)C(=O)C1(c2ccccc2)CC1CN (stereo not shown) ~400 L

The reported numbers originate from patent US20100197797A1.
